- target of assay: 5-hydroxytryptamine receptor 1B (Rattus norvegicus, UniProt P28564); note: in other assays of this panel Not Active means under 50% inhibition at 10 µM
- Sequence (P28564 whole entry): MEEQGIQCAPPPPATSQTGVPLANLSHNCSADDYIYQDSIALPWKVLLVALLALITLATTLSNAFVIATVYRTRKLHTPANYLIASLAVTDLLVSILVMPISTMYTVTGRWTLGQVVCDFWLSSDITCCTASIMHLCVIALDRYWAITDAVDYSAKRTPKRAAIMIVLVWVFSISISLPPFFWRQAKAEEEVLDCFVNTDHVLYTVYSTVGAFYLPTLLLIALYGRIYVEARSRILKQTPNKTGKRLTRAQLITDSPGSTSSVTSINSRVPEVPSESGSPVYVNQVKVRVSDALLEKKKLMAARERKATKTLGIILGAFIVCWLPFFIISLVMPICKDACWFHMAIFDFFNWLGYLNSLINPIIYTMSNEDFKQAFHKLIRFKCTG
- Format: cell membranes, Wistar, Cerebral cortex, Membrane
experimental readout: IC50

C[C@H]([C@](O)(Cn1cncn1)c1ccc(F)cc1F)S(C)(=O)=O | Not Active
O=C(c1ccccc1Cl)N1CCC(Cc2ccccc2)CC1 | Not Active
CCc1oc2ccccc2c1C(=O)c1cc(Br)c(O)c(Br)c1 | Not Active
C[C@]12CC[C@H]3[C@@H](CCC4=CC(=O)CC[C@@]43C)[C@@H]1CC[C@@H]2O | Not Active
CC(C)(C)c1ccc(S(=O)(=O)/C=C/C#N)cc1 | Not Active

Return reported IC50 values for all items listed beneath this line.
1. CC(=O)O[C@H]1C[C@@H]2CC[C@@H]3[C@H](CC[C@@]4(C)[C@H]3C[C@H]([N+]3(C)CCCCC3)[C@@H]4OC(C)=O)[C@@]2(C)C[C@@H]1N1CCCCC1.[Br-] [VECURONIUM BROMIDE]
2. C#C[C@]1(O)CC[C@H]2[C@@H]3CCc4cc(O)ccc4[C@H]3CC[C@@]21C
3. CCOC(=O)C1=C(C)NC(C)=C(C(=O)OC)C1c1cccc(Cl)c1Cl (stereo not drawn)
4. O=C(/C=C/c1ccc(O)c(O)c1)OCCc1ccccc1
5. O=C(O)C(Cl)(Cl)Cl
6. OCCN1CCN(CCCN2c3ccccc3Sc3ccc(Cl)cc32)CC1
7. CC[C@H](C)C(=O)O[C@H]1C[C@H](O)C=C2C=C[C@H](C)[C@H](CC[C@@H](O)C[C@@H](O)CC(=O)O)[C@H]21

Out:
["Not Active", "Not Active", "Not Active", "Not Active", "Not Active", "Not Active", "Not Active"]

// each compound listed below needs its IC50
1. CCn1cc(C(=O)O)c(=O)c2cc(F)c(N3CCNCC3)nc21
2. CC(=O)O[C@]1(C(C)=O)CC[C@H]2[C@@H]3C=C(Cl)C4=CC(=O)[C@@H]5C[C@@H]5[C@]4(C)[C@H]3CC[C@@]21C [CYPROTERONE ACETATE]
3. CC(=O)O[C@]1(C(C)=O)CC[C@H]2[C@@H]3C=C(C)C4=CC(=O)CC[C@]4(C)[C@H]3CC[C@@]21C [MEGESTROL ACETATE]
4. CC(C)(C)NC[C@H](O)COc1nsnc1N1CCOCC1
5. CC(C)OC(=O)C(C)(C)Oc1ccc(C(=O)c2ccc(Cl)cc2)cc1 [FENOFIBRATE]
6. C[C@]12C/C(=C/O)C(=O)C[C@@H]1CC[C@@H]1[C@@H]2CC[C@@]2(C)[C@H]1CC[C@]2(C)O

Out:
1: Not Active; 2: Not Active; 3: Not Active; 4: Not Active; 5: Not Active; 6: Not Active

###

- target of assay: UniProt:P51679
- Sequence (P51679 whole entry): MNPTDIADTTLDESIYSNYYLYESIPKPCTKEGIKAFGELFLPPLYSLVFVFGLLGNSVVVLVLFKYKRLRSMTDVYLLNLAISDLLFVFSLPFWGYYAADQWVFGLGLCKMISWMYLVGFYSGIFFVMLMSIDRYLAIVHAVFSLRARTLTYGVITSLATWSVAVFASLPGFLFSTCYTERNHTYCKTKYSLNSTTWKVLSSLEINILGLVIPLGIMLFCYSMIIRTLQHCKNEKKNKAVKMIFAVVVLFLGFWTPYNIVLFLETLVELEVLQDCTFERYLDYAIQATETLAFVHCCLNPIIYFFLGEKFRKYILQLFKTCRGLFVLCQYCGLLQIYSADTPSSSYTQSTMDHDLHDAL
- Format: cell membranes, Membrane
- experimental context: chem-1; note: in other assays of this panel Not Active means under 50% inhibition at 10 µM
experimental readout: IC50

Previously resolved entries follow.
C[C@H]([C@](O)(Cn1cncn1)c1ccc(F)cc1F)S(C)(=O)=O | Not Active
CN1C(=O)CN=C(c2ccccc2)c2cc(Cl)ccc21 | Not Active
CCOC(=O)n1ccn(C)c1=S | Not Active
CC(=O)O[C@H]1C[C@@H]2CC[C@@H]3[C@H](CC[C@@]4(C)[C@H]3C[C@H]([N+]3(C)CCCCC3)[C@@H]4OC(C)=O)[C@@]2(C)C[C@@H]1N1CCCCC1.[Br-] [VECURONIUM BROMIDE] | Not Active
COc1ncnc(NS(=O)(=O)c2ccc(N)cc2)c1OC | Not Active
OCCN1CCN(CCCN2c3ccccc3Sc3ccc(C(F)(F)F)cc32)CC1 | Not Active
O=c1[nH]c2ccccc2n1CCCN1CCC(n2c(=O)[nH]c3cc(Cl)ccc32)CC1 | Not Active
O=C(O)c1cccnc1 | Not Active

For every item in the list below, what is its measured IC50?
1. Cc1cn([C@H]2C[C@H](N=[N+]=[N-])[C@@H](CO)O2)c(=O)[nH]c1=O
2. CCOC(=O)[C@H](CCc1ccccc1)N[C@@H](C)C(=O)N1Cc2ccccc2C[C@H]1C(=O)O
3. CC(=O)O[C@]1(C(C)=O)CC[C@H]2[C@@H]3C=C(C)C4=CC(=O)CC[C@]4(C)[C@H]3CC[C@@]21C [MEGESTROL ACETATE]
4. CCC[C@@H]1C[C@@H](C(=O)N[C@@H]([C@H]2O[C@H](SC)[C@H](O)[C@@H](O)[C@H]2O)[C@H](C)Cl)N(C)C1
5. CC(=O)O[C@]1(C(C)=O)CC[C@H]2[C@@H]3C=C(Cl)C4=CC(=O)[C@@H]5C[C@@H]5[C@]4(C)[C@H]3CC[C@@]21C [CYPROTERONE ACETATE]
6. O=C(/C=C/c1ccc(O)c(O)c1)OCCc1ccccc1
7. OCCN1CCN(CCCN2c3ccccc3Sc3ccc(Cl)cc32)CC1
8. NC(=O)N1c2ccccc2C=Cc2ccccc21 [CARBAMAZEPINE]

Out:
1: Not Active; 2: Not Active; 3: Not Active; 4: Not Active; 5: Not Active; 6: Not Active; 7: Not Active; 8: Not Active
